- Assayed System: glucocorticoid receptor (GR) (Homo sapiens, UniProt P04150)
- Construct: two reporter plasmids have been generated and introduced separately into A549 human lung epithelial cells by transfection; endogenous in cells
- Sequence (P04150 whole entry): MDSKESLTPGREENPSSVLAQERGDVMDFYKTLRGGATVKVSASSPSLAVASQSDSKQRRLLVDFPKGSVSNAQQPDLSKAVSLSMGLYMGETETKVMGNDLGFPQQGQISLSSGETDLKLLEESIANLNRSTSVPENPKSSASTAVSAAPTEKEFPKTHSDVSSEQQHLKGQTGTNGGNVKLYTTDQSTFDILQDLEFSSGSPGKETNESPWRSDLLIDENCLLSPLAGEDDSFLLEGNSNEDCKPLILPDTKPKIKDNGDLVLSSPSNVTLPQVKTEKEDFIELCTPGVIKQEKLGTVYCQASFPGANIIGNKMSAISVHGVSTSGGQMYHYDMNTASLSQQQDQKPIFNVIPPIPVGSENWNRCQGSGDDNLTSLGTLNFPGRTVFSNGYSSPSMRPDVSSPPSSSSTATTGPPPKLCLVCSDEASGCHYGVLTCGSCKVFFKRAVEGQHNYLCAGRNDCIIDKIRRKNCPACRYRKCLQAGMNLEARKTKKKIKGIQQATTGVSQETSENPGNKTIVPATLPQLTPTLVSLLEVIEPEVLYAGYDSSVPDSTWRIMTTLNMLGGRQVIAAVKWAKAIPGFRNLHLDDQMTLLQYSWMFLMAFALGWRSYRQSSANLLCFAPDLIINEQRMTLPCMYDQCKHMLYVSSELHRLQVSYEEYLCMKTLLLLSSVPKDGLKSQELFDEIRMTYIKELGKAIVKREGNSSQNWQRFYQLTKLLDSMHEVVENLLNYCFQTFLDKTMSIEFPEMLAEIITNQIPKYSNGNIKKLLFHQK
- Experiment Summary: Transactivation reporter assay (renilla luciferase, glucocorticoid response element) in A549 cells
- Measurement Parameters: 1 h compound then 0.5ng/ml TNFα 15 hours, read-out: Transactivation (GR) ED50

>  <Molecule>
C[C@@H]1CCC2C3C[C@H](F)C4=CC(=O)C=C[C@]4(C)[C@@]3(F)[C@@H](O)C[C@]2(C)[C@@]1(OC(=O)c1ccco1)C(=O)O (stereo partly shown) [Metabolite (X)]

>  <EC50>
> 250 nM

$$$$

meta.source: patent US20050152845A1
